# tgt: complex of human CDK4 and genetically truncated (1-264) cyclin D3 (Homo sapiens)
# Sequence (P11802 whole entry, the tested form may be a part): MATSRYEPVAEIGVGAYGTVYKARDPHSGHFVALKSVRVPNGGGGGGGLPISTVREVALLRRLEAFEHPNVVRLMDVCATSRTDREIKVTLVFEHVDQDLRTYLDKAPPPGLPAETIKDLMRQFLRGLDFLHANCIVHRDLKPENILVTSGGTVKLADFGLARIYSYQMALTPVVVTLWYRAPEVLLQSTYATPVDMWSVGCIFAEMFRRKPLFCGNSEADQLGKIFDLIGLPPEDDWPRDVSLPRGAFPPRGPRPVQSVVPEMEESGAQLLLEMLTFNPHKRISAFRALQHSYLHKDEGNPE
# Sequence (P30281 1-264 partner limits assumed): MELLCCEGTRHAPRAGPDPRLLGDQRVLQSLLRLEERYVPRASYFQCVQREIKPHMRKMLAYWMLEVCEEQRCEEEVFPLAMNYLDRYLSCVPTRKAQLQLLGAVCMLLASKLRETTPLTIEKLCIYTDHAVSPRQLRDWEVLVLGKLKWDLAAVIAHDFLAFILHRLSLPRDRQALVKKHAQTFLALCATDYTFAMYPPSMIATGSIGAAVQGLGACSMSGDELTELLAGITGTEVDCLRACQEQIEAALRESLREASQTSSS
# method.description: Inhibition of CDK4/cyclin D retinoblastoma kinase activity (D-type cyclin is truncated D3)
# particulars: superscript c: D-type cyclin is truncated D3; read-out: Ki CDK 4/D
Labelling field: enter Met if recorded Ki is less than 30 nM. Enter Not met if it equals or exceeds that cut-off.

These solved cases illustrate the format of a correct answer.
structure_as_smiles=Nc1nc(Nc2ccc(N3CCN(CC4CC4)CC3)cc2)sc1C(=O)c1c(F)cccc1F assigned_label=Met
structure_as_smiles=NC(=O)C1CCN(c2ccc(Nc3nc(N)c(C(=O)c4c(F)cccc4F)s3)cc2)CC1 assigned_label=Met
structure_as_smiles=C[C@H]1CN(c2ccc(Nc3nc(N)c(C(=O)c4c(F)cccc4F)s3)cc2)CCN1C assigned_label=Met
structure_as_smiles=CN(C)CCCN(C)c1ccc(Nc2nc(N)c(C(=O)c3c(F)cccc3F)s2)cc1 assigned_label=Met
structure_as_smiles=Nc1nc(Nc2ccc(N3CCNCC3)cc2)sc1C(=O)c1c(F)cc(F)cc1F assigned_label=Met

is_below(Ki, 30 nM) for `Nc1nc(Nc2ccc(N3CCC(C(=O)O)CC3)cc2)sc1C(=O)c1c(F)cccc1F` ?
Not met

is_below(Ki, 30 nM) for `Nc1nc(Nc2ccc(N3CCN(c4ccncc4)CC3)cc2)sc1C(=O)c1c(F)cccc1F` ?
Met

is_below(Ki, 30 nM) for `Nc1nc(Nc2ccc(S(N)(=O)=O)cc2)sc1C(=O)c1c(F)cc(F)cc1F` ?
Not met

is_below(Ki, 30 nM) for `Nc1nc(Nc2ccc(-c3ccncc3)cc2)sc1C(=O)c1c(F)cccc1F` ?
Not met

is_below(Ki, 30 nM) for `C[C@@H]1CN(c2ccc(Nc3nc(N)c(C(=O)c4c(F)cccc4F)s3)cc2)CCN1C` ?
Met

is_below(Ki, 30 nM) for `Nc1nc(Nc2ccc(N3CCN(c4ccccn4)CC3)cc2)sc1C(=O)c1c(F)cccc1F` ?
Not met

is_below(Ki, 30 nM) for `CC1(C)CN(c2ccc(Nc3nc(N)c(C(=O)c4c(F)cccc4F)s3)cc2)CCN1` ?
Met

====

# IC50 values compiled below
# System: U2-OS
# method.description: Inhibition of cell growth, MTT assay, U2-OS
# Format: cell-based
# particulars: Homo sapiens, U2OS
Answer with a number only, understood to be in µM.

structure_as_smiles=Cc1ccsc1C(=O)c1sc(Nc2ccc(N3CCN(C)CC3)cc2)nc1N readout_number=1.8

Which IC50 is listed for `Nc1nc(Nc2ccc(S(N)(=O)=O)cc2)sc1C(=O)c1c(Cl)cc(Cl)cc1Cl` ?
7.9

Which IC50 is listed for `CC(=O)N1CCN(c2ccc(Nc3nc(N)c(C(=O)c4c(Cl)cccc4Cl)s3)cc2)CC1` ?
10

====

# log10 IC50 values compiled below
# Tested on: Saos-2
# method.description: Inhibition of cell growth, MTT assay, Saos-2
# Assay type: cell-based
# particulars: Homo sapiens; Saos-2, MTT assay
Annotation: log10 of IC50, nM basis.

# annotated cases, reported log10 IC50 shown
structure_as_smiles=NC(=O)N1CCN(c2ccc(Nc3nc(N)c(C(=O)c4c(F)cccc4F)s3)cc2)CC1 tgt=Saos-2 measurement_type="log10 IC50" readout_number=3.46
structure_as_smiles=Cc1c(C(=O)c2sc(Nc3ccc4nc[nH]c4c3)nc2N)sc2ccccc12 tgt=Saos-2 measurement_type="log10 IC50" readout_number=3.79
structure_as_smiles=Cc1cc([N+](=O)[O-])sc1C(=O)c1sc(Nc2ccc(N3CCN(C)CC3)cc2)nc1N tgt=Saos-2 measurement_type="log10 IC50" readout_number=3.34

So what log10 IC50 did `Cc1ccsc1C(=O)c1sc(Nc2ccc(S(N)(=O)=O)cc2)nc1N` get with Saos-2?
2.62

So what log10 IC50 did `CN1CCN(c2ccc(Nc3nc(N)c(C(=O)c4c(Cl)cc(Br)c(N)c4Cl)s3)cc2)CC1` get with Saos-2?
3.62

// provenance: patent US6569878B1
